pIC50: recorded values
molecular target: HLA-A*03:01; assay: IEDB peptide-MHC binding, purified MHC/competitive/radioactivity; bounds were set here for any values at or beyond the usual limits of such assays; settings: source organism: Homo sapiens
Note on units: pIC50 is unitless, being -log10 of a concentration expressed in mol/L.

KQSSKALQR : 7.37

Incoming: # query: pIC50 of entry GKQSSKALQR
Outgoing: 6.26

Incoming: Note, next up: GFKQSSKALQR
Outgoing: 6.09

Incoming: Note, next up: ATGFKQSSK
Outgoing: 6.52

Incoming: Note, next up: HSATGFKQSSK
Outgoing: 6.40

----------
target: HLA-B*27:01; experiment: IEDB peptide-MHC binding, purified MHC/competitive/radioactivity; bounds were set here for any values at or beyond the usual limits of such assays; conditions: source organism: Homo sapiens
measured_metric: IC50 (nM)
Provide the reading as a plain figure in nM.

Incoming: # query: IC50 of entry GFKQSSKAL
Outgoing: 190

----------
Kd: recorded values
target: HLA-A*02:01; assay: IEDB peptide-MHC binding, purified MHC/competitive/radioactivity; filed as Kd, often an IC50 or EC50 that approximates it; bounds were set here for any values at or beyond the usual limits of such assays; conditions: source organism: Homo sapiens

Some entries whose results are on file:
CITQGKAI : ≥ 50 µM
ATGFKQSSKAL : ≥ 30 µM
VASGAGEAAI : ≥ 50 µM
HVASGAGEAAI : ≥ 50 µM
LTINKEEAL : ≥ 30 µM
DLSSCITQGKA : ≥ 50 µM

Incoming: # query: Kd of entry TINKEEAL
Outgoing: ≥ 30 µM

Incoming: Note, next up: PLTINKEEAL
Outgoing: ≥ 30 µM

----------
target: HLA-A*24:02; test: IEDB peptide-MHC binding, purified MHC/competitive/radioactivity; filed as Kd, often an IC50 or EC50 that approximates it; bounds were set here for any values at or beyond the usual limits of such assays; settings: source organism: Homo sapiens
pKd: −log10 of the molar value.
measured_metric: pKd

Incoming: # query: pKd of entry KALQRPVSDF
Outgoing: ≤ 4.52

----------
target: HLA-A*03:01; assay: IEDB peptide-MHC binding, purified MHC/competitive/radioactivity; filed as Kd, often an IC50 or EC50 that approximates it; bounds were set here for any values at or beyond the usual limits of such assays; conditions: source organism: Homo sapiens
pKd: −log10 of the molar value.
measured_metric: pKd

SATGFKQSSK : 5.26
TINKEEALQR : ≤ 4.52
TGFKQSSK : ≤ 4.52

Attention now shifts to the item below.
Incoming: # query: pKd of entry QSSKALQR
Outgoing: ≤ 4.52

----------
molecular target: HLA-A*11:01; experiment: IEDB peptide-MHC binding, purified MHC/competitive/radioactivity; filed as Kd, often an IC50 or EC50 that approximates it; bounds were set here for any values at or beyond the usual limits of such assays; settings: source organism: Homo sapiens
measured_metric: Kd

GKQSSKALQR : ≥ 5 µM

Incoming: # query: Kd of entry GFKQSSKALQR
Outgoing: 2.15 µM

Incoming: Note, next up: QSSKALQR
Outgoing: ≥ 30 µM

Incoming: Note, next up: SATGFKQSSK
Outgoing: 3.53 µM

Incoming: Note, next up: TGFKQSSK
Outgoing: ≥ 30 µM

Incoming: Note, next up: INKEEALQR
Outgoing: ≥ 30 µM

Incoming: Note, next up: TINKEEALQR
Outgoing: ≥ 30 µM
